Values compiled from patent US20200323991A1.

Tested on: KB cells
Assay type: cell-based, human
Conditions: without excess folate, 2 h pulse, chase up to 72 h, read-out: IC50 value, 3H-thymidine incorporation
Experimental: The conjugates described herein were evaluated using an in vitro cytotoxicity assay that predicted the ability of the drug to inhibit the growth of the corresponding targeted cells, such as, but not limited to the following It is to be understood that the choice of cell type can be made on the basis of the susceptibility of those selected cells to the drug that forms the conjugate, and the relative expression of the cell surface receptor or target antigen. […]
Quick reference for IC50 among some compounds
Just the number in pM, nothing appended.

Examples with their reported IC50 follow.
>>> reported_result("C=C1C[C@H]2C=Nc3cc(OCCCCCOc4cc(NC(=O)OCCSSC[C@@H](C)NC(=O)CCOCCOCCOCCOCCNC(=O)[C@H](CC(=O)O)NC(=O)[C@H](CC(=O)O)NC(=O)[C@H](CCCNC(=N)N)NC(=O)[C@H](CC(=O)O)NC(=O)CC[C@H](NC(=O)c5ccc(NCc6cnc7nc(N)[nH]c(=O)c7n6)cc5)C(=O)O)c(C(=O)N5CC(=C)C[C@H]5/C=N/OC)cc4OC)c(OC)cc3C(=O)N2C1 [Conjugate 26]")
28
>>> reported_result("C=C1C[C@H]2C=Nc3cc(OCCCCCOc4cc(N)c(C(=O)N5CC(=C)C[C@H]5C5OCCN5C(=O)OCC(C)SSC[C@H](NC(=O)[C@H](CC(=O)O)NC(=O)[C@H](CC(=O)O)NC(=O)[C@H](CCCNC(=N)N)NC(=O)[C@H](CC(=O)O)NC(=O)CC[C@H](NC(=O)c5ccc(NCc6cnc7nc(N)[nH]c(=O)c7n6)cc5)C(=O)O)C(=O)O)cc4OC)c(OC)cc3C(=O)N2C1 (stereo partly drawn) [Conjugate 4]")
49

Query: Output reported IC50 of the compound C=C1C[C@H]2C=Nc3cc(OCCCCCOc4cc5c(cc4OC)C(=O)N4CC(=C)C[C@H]4[C@H](O)N5C(=O)OCCSSC[C@H](NC(=O)[C@H](CC(=O)O)NC(=O)[C@H](CC(=O)O)NC(=O)[C@H](CCCNC(=N)N)NC(=O)[C@H](CC(=O)O)NC(=O)CC[C@H](NC(=O)c4ccc(NCc5cnc6nc(N)[nH]c(=O)c6n5)cc4)C(=O)O)C(=O)O)c(OC)cc3C(=O)N2C1 [Conjugate 3] on KB cells.
Response: 39
